MEASURED_ON: 5-HT2A receptor (Homo sapiens, UniProt P28223)
Construct: host or cells: HEK293
Sequence (P28223 whole entry): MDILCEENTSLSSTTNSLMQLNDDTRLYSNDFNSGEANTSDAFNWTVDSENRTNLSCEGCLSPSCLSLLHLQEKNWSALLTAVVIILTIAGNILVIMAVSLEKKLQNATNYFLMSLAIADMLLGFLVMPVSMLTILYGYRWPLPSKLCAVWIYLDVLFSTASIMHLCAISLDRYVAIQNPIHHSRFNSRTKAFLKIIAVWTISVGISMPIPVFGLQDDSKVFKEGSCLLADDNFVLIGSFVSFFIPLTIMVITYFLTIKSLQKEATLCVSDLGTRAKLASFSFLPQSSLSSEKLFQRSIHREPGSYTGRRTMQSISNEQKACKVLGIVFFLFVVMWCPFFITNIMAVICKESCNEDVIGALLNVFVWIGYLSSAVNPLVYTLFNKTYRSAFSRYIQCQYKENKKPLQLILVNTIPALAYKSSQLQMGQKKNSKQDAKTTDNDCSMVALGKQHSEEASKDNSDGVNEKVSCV
TEST_DETAILS: FLIPR Ca2+ flux functional assay, agonist activity at 5-HT2A
Assay type: cell-based
TEST_SETTINGS: stably transfected HEK293 cells
Experimental: Functional assays 5-HT2A, 5-HT2B and 5-HT2C Receptors Activity at 5-HT2A, 5-HT2B and 5-HT2C receptors was determined using a FLIPR Ca2+ flux assay at WuXi AppTec Co. Ltd. (Hong Kong) Discovery Biology Unit according to their standard protocols. […] 10 μL of references and compounds were then transferred from the compound plate into the cell plate and the fluorescent signal was read.
I'd appreciate it if you marked entries rule met when Emax is lower than 70% and rule not met when it is not.

[[record]]
compound = "COc1cnc2[nH]cc(CCN3CCCC3)c2c1 [Compound S46]"
measured_on = "5-HT2A receptor (Homo sapiens, UniProt P28223)"
answer_label = "rule not met"

[[record]]
compound = "CC(C)N(C)CCc1c[nH]c2ncc(C#N)cc12 [Compound S67]"
measured_on = "5-HT2A receptor (Homo sapiens, UniProt P28223)"
answer_label = "rule not met"

[[record]]
compound = "C[C@H]1CCN1CCc1c[nH]c2ncc(F)cc12 [Compound S48]"
measured_on = "5-HT2A receptor (Homo sapiens, UniProt P28223)"
answer_label = "rule not met"

[[record]]
compound = "Fc1cccc(CNCCc2c[nH]c3ncc(F)cc23)c1 [Compound S31]"
measured_on = "5-HT2A receptor (Homo sapiens, UniProt P28223)"
answer_label = "rule not met"

[[record]]
compound = "CCN(C)CCc1c[nH]c2ncc(OC(F)(F)F)cc12 [Compound S64]"
measured_on = "5-HT2A receptor (Homo sapiens, UniProt P28223)"
answer_label = "rule met"

[[record]]
compound = "Fc1cnc2[nH]cc(CCN(C3CC3)C3CC3)c2c1 [Compound S5]"
measured_on = "5-HT2A receptor (Homo sapiens, UniProt P28223)"
answer_label = "rule not met"

[[record]]
compound = "COc1cccc(CNCCc2c[nH]c3ncc(Br)cc23)c1 [Compound S63]"
measured_on = "5-HT2A receptor (Homo sapiens, UniProt P28223)"
answer_label = "rule met"

[[record]]
compound = "CC(C)N(C)CCc1c[nH]c2ncc(Cl)cc12 [Compound S53]"
measured_on = "5-HT2A receptor (Homo sapiens, UniProt P28223)"
answer_label = "rule not met"

[[record]]
compound = "CC1CCN1CCc1c[nH]c2ncc(C#N)cc12 (stereo not shown) [Compound S71]"
measured_on = "5-HT2A receptor (Homo sapiens, UniProt P28223)"
answer_label = "rule not met"

[[record]]
compound = "Fc1cnc2[nH]cc(CCN3CCC4CC43)c2c1 (stereo not shown) [Compound S25]"
measured_on = "5-HT2A receptor (Homo sapiens, UniProt P28223)"
answer_label = "rule not met"

[[record]]
compound = "CC1CCN1CCc1c[nH]c2ncc(F)cc12 (stereo not shown) [Compound S16]"
measured_on = "5-HT2A receptor (Homo sapiens, UniProt P28223)"
answer_label = "rule not met"

[[record]]
compound = "Fc1cnc2[nH]cc(CCN3CCC3)c2c1 [Compound S9]"
measured_on = "5-HT2A receptor (Homo sapiens, UniProt P28223)"
answer_label = "rule not met"

[[record]]
compound = "CN(CCc1c[nH]c2ncc(F)cc12)C1CC1 [Compound S1]"
measured_on = "5-HT2A receptor (Homo sapiens, UniProt P28223)"
answer_label = "rule not met"

[[record]]
compound = "COc1cnc2[nH]cc(CCN3CCCCC3)c2c1 [Compound S47]"
measured_on = "5-HT2A receptor (Homo sapiens, UniProt P28223)"
answer_label = "rule met"

[[record]]
compound = "N#Cc1cnc2[nH]cc(CCN3CCC3)c2c1 [Compound S70]"
measured_on = "5-HT2A receptor (Homo sapiens, UniProt P28223)"
answer_label = "rule not met"

[[record]]
compound = "CN(CCc1c[nH]c2ncc(Br)cc12)C1CC1 [Compound S56]"
measured_on = "5-HT2A receptor (Homo sapiens, UniProt P28223)"
answer_label = "rule met"

[[record]]
compound = "Fc1cccc(CNCCc2c[nH]c3ncc(Br)cc23)c1 [Compound S61]"
measured_on = "5-HT2A receptor (Homo sapiens, UniProt P28223)"
answer_label = "rule met"

[[record]]
compound = "C[C@@H]1CCN1CCc1c[nH]c2ncc(F)cc12 [Compound S49]"
measured_on = "5-HT2A receptor (Homo sapiens, UniProt P28223)"
answer_label = "rule not met"

[[record]]
compound = "N#Cc1cnc2[nH]cc(CCN3CCCC3)c2c1 [Compound S69]"
measured_on = "5-HT2A receptor (Homo sapiens, UniProt P28223)"
answer_label = "rule not met"

[[record]]
compound = "Brc1cnc2[nH]cc(CCN3CCCC3)c2c1 [Compound S57]"
measured_on = "5-HT2A receptor (Homo sapiens, UniProt P28223)"
answer_label = "rule not met"

[[record]]
compound = "COc1cnc2[nH]cc(CCN(C)C3CC3)c2c1 [Compound S44]"
measured_on = "5-HT2A receptor (Homo sapiens, UniProt P28223)"
answer_label = "rule not met"

[[record]]
compound = "COc1ccccc1CNCCc1c[nH]c2ncc(C#N)cc12 [Compound S74]"
measured_on = "5-HT2A receptor (Homo sapiens, UniProt P28223)"
answer_label = "rule not met"

[[record]]
compound = "COc1cccc(CNCCc2c[nH]c3ncc(C#N)cc23)c1 [Compound S75]"
measured_on = "5-HT2A receptor (Homo sapiens, UniProt P28223)"
answer_label = "rule not met"

[[record]]
compound = "COc1ccccc1CNCCc1c[nH]c2ncc(F)cc12 [Compound S32]"
measured_on = "5-HT2A receptor (Homo sapiens, UniProt P28223)"
answer_label = "rule not met"

[[record]]
compound = "Fc1cnc2[nH]cc(CCN3CCC34CCC4)c2c1 [Compound S8]"
measured_on = "5-HT2A receptor (Homo sapiens, UniProt P28223)"
answer_label = "rule met"

[[record]]
compound = "CCN(C)CCc1c[nH]c2ncc(C#N)cc12 [Compound S66]"
measured_on = "5-HT2A receptor (Homo sapiens, UniProt P28223)"
answer_label = "rule met"

[[record]]
compound = "COc1cnc2[nH]cc(CCN3CCC3)c2c1 [Compound S45]"
measured_on = "5-HT2A receptor (Homo sapiens, UniProt P28223)"
answer_label = "rule not met"

[[record]]
compound = "CN(CCc1c[nH]c2ncc(OC(F)(F)F)cc12)C1CC1 [Compound S41]"
measured_on = "5-HT2A receptor (Homo sapiens, UniProt P28223)"
answer_label = "rule met"

[[record]]
compound = "CC(C)N(C)CCc1c[nH]c2ncc(Br)cc12 [Compound S55]"
measured_on = "5-HT2A receptor (Homo sapiens, UniProt P28223)"
answer_label = "rule not met"

[[record]]
compound = "Fc1cnc2[nH]cc(CCNC3CC3)c2c1 [Compound S2]"
measured_on = "5-HT2A receptor (Homo sapiens, UniProt P28223)"
answer_label = "rule not met"

[[record]]
compound = "Fc1cnc2[nH]cc(CCNCc3ccccc3)c2c1 [Compound S34]"
measured_on = "5-HT2A receptor (Homo sapiens, UniProt P28223)"
answer_label = "rule not met"

[[record]]
compound = "Fc1cnc2[nH]cc(CCNCC3CC3)c2c1 [Compound S17]"
measured_on = "5-HT2A receptor (Homo sapiens, UniProt P28223)"
answer_label = "rule not met"

[[record]]
compound = "Fc1cnc2[nH]cc(CCNC3CCC3)c2c1 [Compound S11]"
measured_on = "5-HT2A receptor (Homo sapiens, UniProt P28223)"
answer_label = "rule not met"

[[record]]
compound = "Fc1ccccc1CNCCc1c[nH]c2ncc(Br)cc12 [Compound S60]"
measured_on = "5-HT2A receptor (Homo sapiens, UniProt P28223)"
answer_label = "rule met"

[[record]]
compound = "COc1cccc(CNCCc2c[nH]c3ncc(F)cc23)c1 [Compound S33]"
measured_on = "5-HT2A receptor (Homo sapiens, UniProt P28223)"
answer_label = "rule not met"

[[record]]
compound = "Fc1cnc2[nH]cc(CCN3CCCC3)c2c1 [Compound S6]"
measured_on = "5-HT2A receptor (Homo sapiens, UniProt P28223)"
answer_label = "rule not met"

[[record]]
compound = "C[C@@H]1CCCN1CCc1c[nH]c2ncc(F)cc12 [Compound S50]"
measured_on = "5-HT2A receptor (Homo sapiens, UniProt P28223)"
answer_label = "rule not met"

[[record]]
compound = "COc1ccccc1CNCCc1c[nH]c2ncc(Br)cc12 [Compound S62]"
measured_on = "5-HT2A receptor (Homo sapiens, UniProt P28223)"
answer_label = "rule not met"

